ASSAY TARGET: Mouse EL (Mus musculus, UniProt Q9WVG5)
Sequence (Q9WVG5 21-500): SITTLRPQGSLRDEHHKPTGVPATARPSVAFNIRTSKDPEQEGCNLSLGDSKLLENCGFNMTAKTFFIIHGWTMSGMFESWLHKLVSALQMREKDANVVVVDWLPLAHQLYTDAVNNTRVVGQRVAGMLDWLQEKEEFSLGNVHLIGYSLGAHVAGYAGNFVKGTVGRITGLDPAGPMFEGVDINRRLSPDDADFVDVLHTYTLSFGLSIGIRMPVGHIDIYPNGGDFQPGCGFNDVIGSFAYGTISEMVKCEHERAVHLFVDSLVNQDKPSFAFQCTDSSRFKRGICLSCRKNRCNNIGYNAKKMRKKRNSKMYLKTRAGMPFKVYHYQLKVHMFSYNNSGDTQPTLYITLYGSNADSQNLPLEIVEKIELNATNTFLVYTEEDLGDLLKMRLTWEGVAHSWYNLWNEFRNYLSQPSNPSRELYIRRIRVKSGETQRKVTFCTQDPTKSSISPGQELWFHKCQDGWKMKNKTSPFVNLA
PROTOCOL: Endothelial Lipase Assay, cell surface lipase activity (mouse)
COND: PLA1 substrate 10 μM, fluorescence reaction rate, several values in a cell are repeat determinations
ENDPOINT: pIC50
# pIC50 is unitless: minus log10 of the molar concentration; print number only

Worked cases, pIC50 given:
{"columns": ["GIVEN SMILES", "MEASUREMENT"],
 "data": [
  ["COc1cccc(CCCCCCC(=O)C(=O)NCc2nnc(-c3ccc(C)cc3)o2)c1", 6.78],
  ["N#Cc1ccc(C#CCCCCC(=O)C(=O)NCc2nnc(-c3ccccc3)o2)cc1", 5.62],
  ["O=C(CCCCCCc1ccc(F)cc1)C(=O)NCc1nnc(-c2ccc3ccccc3c2)o1", 6.69],
  ["O=C(CCCCCCc1ccccc1)C(=O)NCc1nnc(-c2ccncc2)o1", 5.14]
]}

// below: pIC50 requested for another compound
[in] Report pIC50, nothing else, for this compound: `O=C(CCCCCOc1ccc(F)cc1F)C(=O)NCc1nnc(-c2ccc(Oc3ccccc3)cc2)o1`
[out] 6.04
